Reported EC50 hGlucagon-R by item:
biological target: human glucagon receptor (human, UniProt P47871 26-477); test: cell-based or functional assay
Sequence (P47871 26-477): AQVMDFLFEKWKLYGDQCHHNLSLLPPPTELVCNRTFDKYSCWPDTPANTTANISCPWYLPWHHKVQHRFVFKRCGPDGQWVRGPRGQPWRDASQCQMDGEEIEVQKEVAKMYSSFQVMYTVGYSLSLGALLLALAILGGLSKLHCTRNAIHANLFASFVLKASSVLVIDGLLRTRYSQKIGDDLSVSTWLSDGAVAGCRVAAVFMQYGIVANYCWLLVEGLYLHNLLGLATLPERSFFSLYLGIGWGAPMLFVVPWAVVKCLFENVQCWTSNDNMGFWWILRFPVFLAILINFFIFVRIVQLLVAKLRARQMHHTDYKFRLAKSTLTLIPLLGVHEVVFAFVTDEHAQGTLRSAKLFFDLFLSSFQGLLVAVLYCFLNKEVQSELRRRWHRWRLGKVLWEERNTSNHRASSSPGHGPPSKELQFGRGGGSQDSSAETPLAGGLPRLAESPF
Numbered stars: 1 amine (or outer) side, 2 acyl side, 3 side chain; on linkers, the order of the positions; unused ones are H or OH. Square brackets hold non-standard residues; d marks the D form. Side chains are listed from the residue outwards. Ends that are not written are not given here. * marks the point of attachment. γGlu = O=C(O)[C@H](CCC(=O)[*:2])N[*:1]; Palmitoyl = CCCCCCCCCCCCCCCC(=O)*; Aib = CC(C)(N)C(=O)O
Report the figure in nM without appending any unit label.

Example entries and their recorded answers appear below.
Look up and state reported EC50 hGlucagon-R for HXQGTFTSDLSKQKDEEAARLFIEWLXSTGPSSGAPPPS (D-Ser at 2; Lys 14 side chain K(γE-γE-x53) = (S)-4-Carboxy-4-((S)-4-carboxy-4-hexadecanoylamino-butyrylamino)-butyryl-; Aib at 27; C-terminal amide) [SEQ ID NO: 18]
0.0103

Output EC50 hGlucagon-R of HXQGTFTSDLSKQKDEEAARLFIEWLXAGGPSSGAPPPS (D-Ser at 2; Lys 14 side chain K(γE-γE-x53) = (S)-4-Carboxy-4-((S)-4-carboxy-4-hexadecanoylamino-butyrylamino)-butyryl-; Aib at 27; C-terminal amide) [SEQ ID NO: 9]
0.0118

Identify measured EC50 hGlucagon-R corresponding to HXQGTFTSDLSKQKDEEAARLFIEWLXSGGPSSGAPPPS (D-Ser at 2; Lys 14 side chain K(γE-γE-x53) = (S)-4-Carboxy-4-((S)-4-carboxy-4-hexadecanoylamino-butyrylamino)-butyryl-; Aib at 27; C-terminal amide) [SEQ ID NO: 15]
0.0123

Further cases:
Name the recorded EC50 hGlucagon-R of the item HXQGTFTSDLSKQKDEEAARLFIEWLXAXGPSSGAPPPS (D-Ser at 2; Lys 14 side chain K(γE-γE-x53) = (S)-4-Carboxy-4-((S)-4-carboxy-4-hexadecanoylamino-butyrylamino)-butyryl-; Aib at 27; D-Ala at 29; C-terminal amide) [SEQ ID NO: 12] in your answer.
0.066

Note down EC50 hGlucagon-R recorded for H[dS]HGTFTSDLSKQK([γGlu-γGlu-Palmitoyl])DEEAARLFIEWL[Aib]AGGPSSGAPPPS-NH2 [SEQ ID NO: 7]
0.009

Hello, please tell me recorded EC50 hGlucagon-R for this one: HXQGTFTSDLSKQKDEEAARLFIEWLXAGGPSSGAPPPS (D-Ser at 2; Lys 14 side chain K(γE-x70) = (S)-4-Carboxy-4-octadecanoylamino-butyryl-; Aib at 27; C-terminal amide) [SEQ ID NO: 13]
0.0068

Just for reference, patent US20150322128A1 is where these values come from.
